tested on: S. aureus ATCC 29213; assay: Antibacterial activity in vitro, broth microdilution MIC; type: cell-based, Staphylococcus aureus; settings: broth microdilution, 16–24 h at 37 °C; unit inferred
MEASUREMENT_TYPE: MIC S. aureus ATCC 29213 (µM)
Give bare numbers, in µM.

Use the examples below as a reference point.
[
  {
    "COMPOUND": "NC[C@H]1O[C@H](O[C@H]2[C@H](O)[C@@H](O[C@H]3O[C@H](CO)[C@@H](O)[C@H](N)[C@H]3O)[C@H](N)C[C@@H]2N)[C@H](N)C[C@@H]1O [Tobramycin, reference compound]",
    "TARGET_OF_ASSAY": "S. aureus ATCC 29213",
    "UNIT_SYMBOL": "µM",
    "MIC S. aureus ATCC 29213": 0.25
  },
  {
    "COMPOUND": "CC(C)Cn1c(NC(=O)c2cc(O)c(O)c(O)c2)nc2ccccc21",
    "TARGET_OF_ASSAY": "S. aureus ATCC 29213",
    "UNIT_SYMBOL": "µM",
    "MIC S. aureus ATCC 29213": 32
  }
]

Please look at the following compound next.
## Input What value of MIC S. aureus ATCC 29213 has been recorded for this entry: CNC(C)C1CCC(N)C(OC2C(N)CC(N)C(OC3OCC(C)(O)C(NC)C3O)C2O)O1 (stereo not shown) [Gentamicin, gentamicin, reference compound]
## Output 0.25

* * *

test system: H460, HCT 116, MCF-7, HEK 293; test: Antiproliferative activity in vitro, MTT assay, range over the tested cell lines; format: cell-based, human; conditions: read-out: IC50 range against the tested cell lines
pIC50: −log10 of the molar value.
MEASUREMENT_TYPE: pIC50

## Input What value of pIC50 has been recorded for this entry: COc1ccc(C(=O)Nc2nc3cc(C#N)ccc3n2CC(C)C)c(O)c1
## Output 5.28 to 5.92

* * *

test system: S. aureus ATCC 29213; assay: Antibacterial activity in vitro, broth microdilution MIC; format: cell-based, Staphylococcus aureus; settings: broth microdilution, 16–24 h at 37 °C; unit inferred
Answer each item with its documented MIC S. aureus ATCC 29213.

[
  {
    "COMPOUND": "COc1ccc(C(=O)Nc2nc3cc(C#N)ccc3n2C)c(O)c1 [Compound 12]",
    "MEASUREMENT_TYPE": "MIC S. aureus ATCC 29213",
    "MEASURED": "> 64 µM"
  },
  {
    "COMPOUND": "O=C(O)c1cn(C2CC2)c2cc(N3CCNCC3)c(F)cc2c1=O [Ciprofloxacin, ciprofloxacin, reference compound]",
    "MEASUREMENT_TYPE": "MIC S. aureus ATCC 29213",
    "MEASURED": "0.25 µM"
  },
  {
    "COMPOUND": "CC(C)(O/N=C(\\C(=O)N[C@@H]1C(=O)N2C(C(=O)[O-])=C(C[n+]3ccccc3)CS[C@H]12)c1csc(N)n1)C(=O)O [Ceftazidime, ceftazidime, reference compound]",
    "MEASUREMENT_TYPE": "MIC S. aureus ATCC 29213",
    "MEASURED": "4 µM"
  },
  {
    "COMPOUND": "Cn1c(NC(=O)c2cc(O)c(O)c(O)c2)nc2cc(C#N)ccc21 [Compound 36]",
    "MEASUREMENT_TYPE": "MIC S. aureus ATCC 29213",
    "MEASURED": "32 µM"
  },
  {
    "COMPOUND": "Cn1c(NC(=O)c2ccc(O)cc2O)nc2cc(C#N)ccc21 [Compound 35]",
    "MEASUREMENT_TYPE": "MIC S. aureus ATCC 29213",
    "MEASURED": "> 64 µM"
  }
]

Give measured MIC S. aureus ATCC 29213 for every item shown.
1. C[C@@H](O)[C@H]1C(=O)N2C(C(=O)O)=C(S[C@@H]3CN[C@H](C(=O)N(C)C)C3)[C@H](C)[C@H]12 [Meropenem, meropenem, reference compound]
2. COc1ccc(C(=O)Nc2nc3cc(C#N)ccc3n2CC(C)C)c(O)c1 [Compound 10]
3. COc1ccc(C(=O)Nc2nc3ccccc3[nH]2)c(O)c1 [Compound 7]

## Output
< 0.125 µM
> 64 µM
> 64 µM
